- System: mouse long-term hematopoietic stem cells
- assay-procedure: Reproducibility and concentration dependence test: 1-week culture of sorted Hoxb5-tri-mCherry mouse long-term hematopoietic stem cells, flow cytometry
- Format: cell-based
- conditions-used: Table 4; compound 3 μM; day 7 of culture; n=2
result-type: Viable cell count (cell)

compound=CC(C)O[C@H]1O[C@@H]2O[C@@]3(C)CC[C@H]4[C@H](C)CC[C@@H]([C@H]1C)[C@@]24OO3 endpoint_value=0.0
compound=C[C@H]1[C@@H](C(N)=O)O[C@@H]2O[C@@]3(C)CC[C@H]4[C@H](C)CC[C@@H]1[C@@]24OO3 endpoint_value=111.0
compound=C[C@H]1[C@@H](OCC(F)(F)F)O[C@@H]2O[C@@]3(C)CC[C@H]4[C@H](C)CC[C@@H]1[C@@]24OO3 endpoint_value=0.5
compound=C[C@H]1[C@H](C(N)=O)O[C@@H]2O[C@@]3(C)CC[C@H]4[C@H](C)CC[C@@H]1[C@@]24OO3 endpoint_value=182.5
compound=C[C@H]1[C@H](C(=O)O)O[C@@H]2O[C@@]3(C)CC[C@H]4[C@H](C)CC[C@@H]1[C@@]24OO3 endpoint_value=204.5
compound=C[C@H]1[C@@H](Oc2ccccc2)O[C@@H]2O[C@@]3(C)CC[C@H]4[C@H](C)CC[C@@H]1[C@@]24OO3 endpoint_value=0.5
compound="CC(=O)OCCOC1O[C@@H]2O[C@@]3(C)CC[C@H]4[C@H](C)CC[C@@H]([C@H]1C)[C@@]24OO3 (stereo in doubt)" endpoint_value=43.5
compound=C[C@H]1[C@@H](F)O[C@@H]2O[C@@]3(C)CC[C@H]4[C@H](C)CC[C@@H]1[C@@]24OO3 endpoint_value=0.0
compound=C[C@H]1[C@@H](c2ccccc2)O[C@@H]2O[C@@]3(C)CC[C@H]4[C@H](C)CC[C@@H]1[C@@]24OO3 endpoint_value=0.5
compound=C[C@H]1[C@@H](C)O[C@@H]2O[C@@]3(C)CC[C@H]4[C@H](C)CC[C@@H]1[C@@]24OO3 endpoint_value=215.5
compound=CC1=CO[C@@H]2O[C@@]3(C)CC[C@H]4[C@H](C)CC[C@@H]1[C@@]24OO3 endpoint_value=283.0
compound=C[C@H]1[C@H](c2ccco2)O[C@@H]2O[C@@]3(C)CC[C@H]4[C@H](C)CC[C@@H]1[C@@]24OO3 endpoint_value=0.0
compound=CS[C@@H]1O[C@@H]2O[C@@]3(C)CC[C@H]4[C@H](C)CC[C@@H]([C@H]1C)[C@@]24OO3 endpoint_value=139.0
compound=C[C@H]1[C@@H](CN)O[C@@H]2O[C@@]3(C)CC[C@H]4[C@H](C)CC[C@@H]1[C@@]24OO3 endpoint_value=315.0
compound=C[C@H]1[C@H](N(C)C)O[C@@H]2O[C@@]3(C)CC[C@H]4[C@H](C)CC[C@@H]1[C@@]24OO3 endpoint_value=217.0
compound="C[C@@H]1CC[C@H]2[C@@H](C)C(=O)O[C@@H]3O[C@@]4(C)CC[C@@H]1[C@]32OO4 [Example 1-33, artemisinin, reference compound]" endpoint_value=85.0
compound=CS[C@H]1O[C@@H]2O[C@@]3(C)CC[C@H]4[C@H](C)CC[C@@H]([C@H]1C)[C@@]24OO3 endpoint_value=87.5
compound=C[C@H]1[C@H](NS(C)(=O)=O)O[C@@H]2O[C@@]3(C)CC[C@H]4[C@H](C)CC[C@@H]1[C@@]24OO3 endpoint_value=31.0
compound="C[C@H]1[C@@H](O)O[C@@H]2O[C@@]3(C)CC[C@H]4[C@H](C)CC[C@@H]1[C@@]24OO3 [Example 1-29, artenimol, reference compound]" endpoint_value=4.5
compound=C[C@H]1[C@H](n2cc(-c3ccccc3)nn2)O[C@@H]2O[C@@]3(C)CC[C@H]4[C@H](C)CC[C@@H]1[C@@]24OO3 endpoint_value=479.0
compound=C[C@H]1[C@H](N2CCOCC2)O[C@@H]2O[C@@]3(C)CC[C@H]4[C@H](C)CC[C@@H]1[C@@]24OO3 endpoint_value=0.0
compound=C[C@H]1[C@@H](OCc2ccccc2)O[C@@H]2O[C@@]3(C)CC[C@H]4[C@H](C)CC[C@@H]1[C@@]24OO3 endpoint_value=0.0
compound="CO[C@H]1O[C@@H]2O[C@@]3(C)CC[C@H]4[C@H](C)CC[C@@H]([C@H]1C)[C@@]24OO3 [Example 1-30, artemether, reference compound]" endpoint_value=44.5
compound=C[C@H]1[C@H](S(C)(=O)=O)O[C@@H]2O[C@@]3(C)CC[C@H]4[C@H](C)CC[C@@H]1[C@@]24OO3 endpoint_value=184.0
compound=C[C@@H]1CC[C@H]2[C@@H](C)C(=O)O[C@@H]3O[C@@]4(C)CC[C@@H]1[C@]32O4 endpoint_value=268.0

Just for reference, patent US20230094952A1 is where these values come from.
